The reported numbers originate from patent US20230125550A1.

Molecular target: T1, recombinant human CD123-Fc (human, UniProt P26951 19-305)
T1 construct: not shown: Fc part of CD123-Fc
T1 sequence: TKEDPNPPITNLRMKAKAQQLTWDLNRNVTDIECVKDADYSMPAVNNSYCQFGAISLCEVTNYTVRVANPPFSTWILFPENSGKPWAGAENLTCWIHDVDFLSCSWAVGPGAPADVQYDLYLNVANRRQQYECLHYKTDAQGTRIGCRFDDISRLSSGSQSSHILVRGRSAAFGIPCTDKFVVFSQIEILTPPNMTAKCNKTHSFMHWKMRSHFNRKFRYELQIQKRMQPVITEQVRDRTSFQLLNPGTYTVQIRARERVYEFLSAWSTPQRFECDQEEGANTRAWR
Assay: phage ELISA, captured CD123-Fc
From the text: Individual colonies containing phagemid from BCMA panning output were picked and phage were rescued in 96-well format using VCSM13 helper phage following standard protocols. […] Binding was detected using an HRP-conjugated anti-M13 antibody and the ELISA ratio for each sequence is reported as the absorbance at 450 nm for target (i.e., BCMA-Fc, CD123-Fc, AFP, or AFP123) divided by that for IgG1-Fc averaged across all screened wells containing that clone.
Here the recorded ELISA_avg is given for each entry.

{"columns": ["binder", "ELISA_avg"],
 "data": [
  ["SEQ ID NO: 513 (designed binder, D domain, on phage) MGSWHVFKTELADIKFYLEALGGSEAELAMFELWIAEFEHELQDYKGKGNPEVEALRKEAAAIRDELQAYRHN", "5.4 ratio A450 target/IgG1-Fc"],
  ["SEQ ID NO: 573 (designed binder, D domain, on phage) MGSWTEFEERLEAIWDRLYALGGSEAELAAFEWDIAYFEDGLQEYKGKGNPEVEALFMEAEAIIRELKAYRHN", "5.9 ratio A450 target/IgG1-Fc"],
  ["SEQ ID NO: 576 (designed binder, D domain, on phage) MGSWMEFEDRLIAIWARLDALGGSEAELAWFEADIADFEESLQEYKGKGNPEVEALIFEAIAINKELMAYRHN", "3.7 ratio A450 target/IgG1-Fc"],
  ["SEQ ID NO: 602 (designed binder, D domain, on phage) MGSWFEFNDRLDAISERLSALGGSEAELAYFEWQIAVFEKTLQNYKGKGNPEVEALTLEANAIFEELEAYRHN", "3.9 ratio A450 target/IgG1-Fc"],
  ["SEQ ID NO: 416 (designed binder, D domain, on phage) MGSWVEFNIRLDAIYERLYALGGSEAELAAFEKEIAAFESELQAYKGKGNPEVEKLRHWAASIRRELQAYRHN", "13.4 ratio A450 target/IgG1-Fc"]
]}
